The values you see were collected from ChEMBL document CHEMBL5335801.

Target: Carbonic anhydrase 2 (Homo sapiens, UniProt P00918)
measurementType: Ki (nM)

Sample records with Ki:
Req: So what's the measured Ki for this one? CC(C)c1ccc(C2C=C(Nc3ccc(S(N)(=O)=O)cc3)C(=O)N2c2ccc(S(N)(=O)=O)cc2)cc1 (stereo not given)
Resp: 93.9

Req: For COc1cc(C2C=C(Nc3ccc(S(N)(=O)=O)cc3)C(=O)N2c2ccc(S(N)(=O)=O)cc2)ccc1O (stereo not given) , what is its reported Ki?
Resp: 6.9

I: COc1ccc(O)c(C2C=C(Nc3ccc(S(N)(=O)=O)cc3)C(=O)N2c2ccc(S(N)(=O)=O)cc2)c1 (stereo not given)
II: CCCCc1ccc(C2C=C(Nc3ccc(S(N)(=O)=O)cc3)C(=O)N2c2ccc(S(N)(=O)=O)cc2)cc1 (stereo not given)
III: NS(=O)(=O)c1ccc(NC2=CC(/C=C/c3ccccc3)N(c3ccc(S(N)(=O)=O)cc3)C2=O)cc1 (stereo not given)
IV: NS(=O)(=O)c1ccc(NC2=CC(c3cc(C(F)(F)F)cc(C(F)(F)F)c3)N(c3ccc(S(N)(=O)=O)cc3)C2=O)cc1 (stereo not given)
V: NS(=O)(=O)c1ccc(NC2=CC(c3ccc4c(c3)OCO4)N(c3ccc(S(N)(=O)=O)cc3)C2=O)cc1 (stereo not given)
Req: Arrange the 5 entries by Ki so the values rise. // rank by listing labels in the order requested
Resp: IV, I, V, III, II
